Origin of values: PubChem BioAssay

# protocol-notes: endothelial E-selectin expression blockers – imaging, HUVEC, immunofluorescence, MLSMR starter and 10KST1 sets, primary screen (AID 487);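 note: 100% = median nuclei count of all wells on the same plate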
# measurement-context: HUVEC TNFalpha-induced E-selectin immunofluorescence imaging, at 2 µM; measured here: cell number, toxicity
recorded-metric: nuclei count (%)
Report the figure in % without appending any unit label.

Lookup: What does the record list as nuclei count for "C=C(C)COc1ccc(-c2nc(N)ncc2Oc2ccccc2OCC)c(O)c1" ?
Found: 114

Lookup: // same read-out, input: "Cn1c(CN2CCOCC2)nc2cc(NC(=O)c3ccccc3Cl)ccc21"
Found: 113

###

# assay-target: Voltage-gated potassium channel subunit beta-2 (Rattus norvegicus) (UniProt P62483)
# Sequence (P62483 whole entry, looked up): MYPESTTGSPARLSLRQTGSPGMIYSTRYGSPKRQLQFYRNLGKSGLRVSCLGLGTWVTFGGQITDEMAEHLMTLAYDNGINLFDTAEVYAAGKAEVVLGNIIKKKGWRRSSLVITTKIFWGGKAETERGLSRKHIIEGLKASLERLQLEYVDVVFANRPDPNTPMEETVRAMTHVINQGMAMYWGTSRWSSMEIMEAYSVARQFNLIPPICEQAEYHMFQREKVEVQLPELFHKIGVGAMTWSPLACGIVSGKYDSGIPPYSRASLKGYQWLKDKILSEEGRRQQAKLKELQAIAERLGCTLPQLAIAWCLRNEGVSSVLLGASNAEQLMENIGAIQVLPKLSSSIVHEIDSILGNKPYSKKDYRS
# protocol-notes: inhibitors of rat Kvbeta2 reductase activity – biochemical, NADPH fluorescence, primary screen (AID 622);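 note: slope of raw intensity against log time taken from 70 to 1610 s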
# measurement-context: recombinant KvBeta, 4-cyanobenzaldehyde reduction, at 10 µM, stronger effect = higher value
The molecules listed here are annotated with their fluorescence slope.
Returns: the value as a bare number; no unit string appended.

Previously resolved entries follow.
CC1(C)CC(=O)c2cc(OCC(=O)NCCCN3CCN(c4ccccc4F)CC3)ccc2O1: -0.366
COC(=O)c1sccc1NC(=O)c1ccncc1: -0.49

Lookup: Fill in: fluorescence slope of O=C(NC12CC3CC(CC(C3)C1)C2)C1CCCN1C(=O)NC1CCCCC1 (stereo unspecified) is ___
Found: -0.284

Lookup: Same for "Cn1cccc1C(=O)NC(=O)CSc1nnc(C2CC2)n1-c1ccccc1"
Found: -0.589

Lookup: Same read-out for "CCOC(=O)c1sc(C)c2c(=O)n(CC)nnc12" ?
Found: -0.523

Lookup: One more molecule: COc1ccc(S(=O)(=O)NC(CC(=O)NCc2ccco2)c2ccco2)cc1 (stereo unspecified)
Found: -0.566

###

Listed here are compounds together with their documented inhibition.
# protocol-notes: inhibitors of TNFa-induced NFkB p65 translocation, primary screen, imaging, HUVEC, MLSMR starter and 10KST1 sets (AID 438);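 note: compound added about 3h40 before a 20 min TNFalpha stimulation; signal is the nuclear over cytoplasmic p65 intensity ratio per well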
# measurement-context: HUVEC TNFa-induced p65 nuclear translocation; at 2 µM, stronger effect = higher value, 0% TNFa-plus-vehicle, 100% no-TNFa wells
Express your answer in %, writing the number without its unit.

Worked examples follow.
CCOC(=O)c1ccc(-c2c(C(=O)OCC)oc3cc(O)c(CC)cc3c2=O)o1: 6.9
Nc1cc(C(=O)O)ccc1Nc1ccccc1: -9.8
O=C(OCc1cc2ccccc2[nH]c1=O)c1ccncc1: -3.9
O=C(Nc1ccccc1N1CCN(C(=O)c2ccc(Cl)cc2)CC1)c1cc2ccccc2o1: 0
CC(C)(C)n1ncc2c(=O)n(CC(=O)NCCc3ccccc3)cnc21: 3.9

As a next step, examine the compound that follows.
Lookup: What value of inhibition has been reported for the following compound? "CCCn1c(=N)n(CC(=O)c2cccs2)c2ccccc21"
Found: 3.8

###

# protocol-notes: Primary imaging screen for DUSP6 inhibitors that restore phospho-Erk in transfected HeLa cells, chemical complementation (AID 609)
# measurement-context: HeLa MKP-3 transfected, phospho-Erk imaging KS statistic; measured here: nuclear pErk red intensity z-score; at 10 µM; stronger effect = higher value; cells stimulated with TPA for 15 min
Parameter: z-score. Scope: all listed entries.

Lookup: Could you share which z-score value was measured for "CC[C@]1(O)C[C@@H]2CN(CCc3c([nH]c4ccccc34)[C@@](C(=O)OC)(c3cc4c(cc3OC)N(C)[C@H]3[C@@](O)(C(=O)OC)[C@H](OC(C)=O)[C@]5(CC)C=CCN6CC[C@]43[C@@H]65)C2)C1" ?
Found: 1.1

Lookup: Consider next the compound "Cc1nc2sc(C)c(C)c2c(=O)o1" in the same way.
Found: 1.05

Lookup: "CC(C)CCOc1ccc(Cl)cc1CN1CCOCC1" ?
Found: -0.739

Lookup: Here is the next compound: "Cc1cccc(Nc2ccccc2C(=O)O)c1C"
Found: -0.849

Lookup: Follow-up entry: COc1cc2nc(N3CCN(C(=O)C4CCCO4)CC3)nc(N)c2cc1OC (stereo not given)
Found: -0.73
